These data points were gathered from ChEMBL document CHEMBL5321294.

- tested on: Protein deacetylase HDAC6 (Homo sapiens)
- Sequence (Q9UBN7 whole entry): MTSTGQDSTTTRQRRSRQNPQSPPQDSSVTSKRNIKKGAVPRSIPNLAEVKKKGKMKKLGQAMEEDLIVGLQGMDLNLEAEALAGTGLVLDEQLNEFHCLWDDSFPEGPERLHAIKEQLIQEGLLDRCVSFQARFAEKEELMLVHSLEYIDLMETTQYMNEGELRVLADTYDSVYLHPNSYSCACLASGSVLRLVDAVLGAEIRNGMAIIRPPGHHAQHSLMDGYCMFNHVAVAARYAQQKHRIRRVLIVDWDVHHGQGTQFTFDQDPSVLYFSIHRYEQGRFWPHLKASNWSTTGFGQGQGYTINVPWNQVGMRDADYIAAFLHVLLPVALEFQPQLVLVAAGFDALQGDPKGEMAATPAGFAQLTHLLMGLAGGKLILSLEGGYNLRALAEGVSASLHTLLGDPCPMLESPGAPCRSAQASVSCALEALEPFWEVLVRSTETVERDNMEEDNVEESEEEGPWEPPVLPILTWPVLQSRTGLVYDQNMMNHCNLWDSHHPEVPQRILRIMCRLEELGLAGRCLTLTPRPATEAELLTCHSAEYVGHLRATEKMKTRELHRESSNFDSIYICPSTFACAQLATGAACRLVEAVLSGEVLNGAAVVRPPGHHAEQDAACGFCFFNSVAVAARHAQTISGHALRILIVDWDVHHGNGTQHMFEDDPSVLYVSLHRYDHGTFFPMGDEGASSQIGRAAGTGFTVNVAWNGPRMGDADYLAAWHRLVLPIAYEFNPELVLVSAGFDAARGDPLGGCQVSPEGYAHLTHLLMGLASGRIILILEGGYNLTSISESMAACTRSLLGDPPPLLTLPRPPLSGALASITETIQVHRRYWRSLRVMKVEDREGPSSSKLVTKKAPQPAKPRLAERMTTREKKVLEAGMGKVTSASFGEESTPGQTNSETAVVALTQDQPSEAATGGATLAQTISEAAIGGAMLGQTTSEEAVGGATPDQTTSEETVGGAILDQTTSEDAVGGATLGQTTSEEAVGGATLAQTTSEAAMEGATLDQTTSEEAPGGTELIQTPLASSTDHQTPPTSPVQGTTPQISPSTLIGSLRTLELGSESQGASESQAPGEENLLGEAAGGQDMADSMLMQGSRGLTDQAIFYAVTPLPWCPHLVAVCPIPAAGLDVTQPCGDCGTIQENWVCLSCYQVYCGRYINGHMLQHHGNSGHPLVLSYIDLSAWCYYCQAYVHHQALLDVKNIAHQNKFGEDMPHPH
- experiment: Binding affinity to recombinant human HDAC6 using Ac-Leu-Gly-Lys(Ac)-AMC as substrate measured after 60 mins assessed as inhibition constant by fluorescence based assay
Non-standard residues stand in square brackets, D forms with d. Residues, ends and D or L forms follow the SMILES beside them. *: point of attachment. Asu = N[C@@H](CCCCCC(=O)O)C(=O)O; dPip = O=C(O)[C@H]1CCCCN1; NHOH = ON*

compound: O=C(CCCCC[C@@H]1NC(=O)[C@H]2CCCN2C(=O)[C@H](Cc2ccccc2)NC(=O)[C@H](Cc2ccccc2)NC1=O)NO (cyclo([Asu](NHOH)FF[dP]))
Ki: ~1.2 nM
//
compound: CC[C@H](C)[C@@H]1NC(=O)[C@H](Cc2c[nH]c3ccccc23)NC(=O)[C@H](CCCCCC(=O)NO)NC(=O)[C@H]2CCCCN2C1=O (cyclo([Asu](NHOH)WI[dPip]))
Ki: ~3.6 nM
